Hi there, I'd appreciate the recorded OC43 Inhibition rate for every entry that follows.
Tested on: HCoV-OC43
Set-up: species or system RD; HTS, protection from HCoV-OC43 induced cell death, luminescent cell viability (CellCounting-Lite 2.0), inhibition rate
Settings: 24 h post infection, 1 h compound pre-incubation, 10 µM, inhibitor, OC43 Inhibition rate, 24 h
Among all 3,300 compounds or so, about 60 (2%) showed an effect of 50% or more. This excerpt belongs to a sample that is enriched for strong results.
Numbers only, in %.

Here's what some known entries look like.
- COc1cc2c(cc1OC)[C@@H](Cc1ccc(O)c(Oc3cc4c(cc3OC)CCN(C)[C@@H]4Cc3ccc(O)cc3)c1)N(C)CC2 [Liensinine (Diperchlorate)]: 24.8
- CC(C)C[C@H](NC(=O)[C@@H](O)[C@H](N)Cc1ccccc1)C(=O)O: 1.8

Please give OC43 Inhibition rate, item by item, for the list that follows.
1. C[N+](C)(C)[O-] [Trimethylamine N-oxide (dihydrate)]
2. COc1cc2c(cc1OC)[C@@H](Cc1ccc(O)c(Oc3cc4c(cc3OC)CCN(C)[C@@H]4Cc3ccc(O)cc3)c1)N(C)CC2 [Liensinine (perchlorate)]
3. COc1ccc([C@H]2OC[C@H]3[C@@H]2CO[C@@H]3c2ccc(OC)c(OC)c2)cc1OC
4. C1CCN2C[C@H]3C[C@H](CN4CCCC[C@@H]34)[C@H]2C1 [(+)-Sparteine]
5. Cc1ncc(C[n+]2csc(CCO)c2C)c(N)n1 [Thiamine monochloride]

Out:
1. -1.8
2. 0.4
3. 1.1
4. 6
5. 2.4
